assay: antimalarial activity against Dd2 strain (AID 2302);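 note: 0% = DMSO untreated growth and 100% = chloroquine plus artemisinin killed control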; conditions: P. falciparum Dd2 in RBCs, LDH growth readout, 72 h; at 2 µM; stronger effect = higher value
Answer label 0 if growth inhibition is under 60%, and label 1 if it is 60% or more.

# COMPOUND, ASSIGNED CATEGORY
measured = [
    ("O=C(/C=C/c1ccc(Cl)c(Cl)c1)NCCCCCN1CCC(NC(=O)Nc2cccc(Cl)c2)CC1", "label 0"),
    ("CC(CN1CCN(C)CC1)C(=O)Nc1ccc(-c2cccc(-c3nc4ccc(F)cc4[nH]3)c2)cc1 (stereo not given)", "label 1"),
    ("O=C(/C=C/c1ccc(Cl)c(Cl)c1)NCCCCCN1CCC(NC(=O)Nc2cc(Cl)nc(Cl)c2)CC1", "label 0"),
]

Prompt line: I'd appreciate it if you could say whether O=C(Nc1cc(F)c(F)c(-c2cccnc2)c1)N1CCc2cc(Cl)c(Cl)cc21 has growth inhibition at least equal to 60%.
Response line: label 0

Prompt line: I'd appreciate it if you could say whether CCOC(=O)C(NC(=O)c1ccc([N+](=O)[O-])o1)C(C)C (stereo not given) has growth inhibition at least equal to 60%.
Response line: label 0

----------
target: L-lactate dehydrogenase (Plasmodium falciparum (isolate CDC / Honduras)); experiment: PfLDH activity inhibition – cell lysate, 3D7 strain, counter-screen for P. falciparum growth inhibition project (AID 2304);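 note: 0% = vehicle and 100% = reference inhibitor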; settings: P. falciparum 3D7 crude extract, LDH APAD/NBT absorbance; at 2 µM; stronger effect = higher value
Reported inhibition by item:
Answer with a number only, understood to be in %.

# count of solved cases: 8
# MOLECULE, ASSAY TARGET, inhibition [%]
rows = [
    ("COC(=O)c1ccc(N2CCN(CCCCNC(=O)c3ccc(NC(=O)c4ccc(Cl)cc4)cc3)CC2)c(OC)c1", "L-lactate dehydrogenase (Plasmodium falciparum (isolate CDC / Honduras))", 3),
    ("Cc1cc(-c2ccc(Cl)cc2)c2c(N)c(C(=O)Nc3ccc(F)cc3)sc2n1", "L-lactate dehydrogenase (Plasmodium falciparum (isolate CDC / Honduras))", 0),
    ("Cc1c(CNCCCNc2nc3cscc3[nH]2)sc(C(F)F)c1Br", "L-lactate dehydrogenase (Plasmodium falciparum (isolate CDC / Honduras))", 1),
    ("Cc1cccc2[nH]c(-c3cccc(-c4ccc(NC(=O)COc5ccccc5C(N)=O)cc4)c3)nc12", "L-lactate dehydrogenase (Plasmodium falciparum (isolate CDC / Honduras))", -8),
    ("COc1ccccc1NC(=O)CSc1nc2cccnc2n1-c1ccccc1OC", "L-lactate dehydrogenase (Plasmodium falciparum (isolate CDC / Honduras))", -3),
    ("Cc1cc(CN2CC[C@H](NC(=O)c3ccc(Cl)c(Cl)c3)C2)ccc1OCCN1CCCC1", "L-lactate dehydrogenase (Plasmodium falciparum (isolate CDC / Honduras))", 0),
    ("COc1cccc(C(=O)NCc2n[nH]c(=S)n2-c2ccc(Cl)c(Cl)c2)c1", "L-lactate dehydrogenase (Plasmodium falciparum (isolate CDC / Honduras))", 5),
    ("Cc1ccc(-c2nnc(Nc3ccc(C(=O)N4CCCCC4)cc3)c3ccccc23)cc1S(=O)(=O)NCC1CCCO1 (stereo not given)", "L-lactate dehydrogenase (Plasmodium falciparum (isolate CDC / Honduras))", -4),
]

Reported inhibition for N#Cc1ccc(C=NNc2nc3ccccc3[nH]2)cc1 was 3

Reported inhibition for Nc1cc(-c2cc3c(OCc4ccccc4)cccc3[nH]2)ccn1 was 4

Reported inhibition for CC1(C)N=C(N)N=C(N)N1OCc1nc(N)nc(Nc2ccccc2)n1 was -2

Reported inhibition for COc1cc(Cc2cnc(N)nc2N)cc(OCc2cccc(C(=O)O)c2)c1OC was 4

Reported inhibition for O=C(NC1CCN(CC2(c3ccc(Cl)cc3)CCCCC2)CC1)c1ccn[nH]1 was 4

----------
test: antimalarial activity against Dd2 strain (AID 2302);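 note: 0% = DMSO untreated growth and 100% = chloroquine plus artemisinin killed control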; details: P. falciparum Dd2 in RBCs, LDH growth readout, 72 h; at 2 µM
Calls of active or inactive are those of the source.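 Rule for the calls: active = growth inhibition above 50% at the single 2 µM test dose, taken to imply half-maximal potency below 2 µM; inactive = the rest.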
Respond using exactly one of the listed classes: active, inactive

# MOLECULE, ASSIGNED CATEGORY
rows = [
    ("CCC(=O)N1CCc2cc(Br)cc(S(=O)(=O)N3CC(C)CC(C)C3)c21 (stereo not given)", "active"),
    ("CCC1(CC)N=C(N)N=C(N)N1OCc1ccc(Cl)c(Cl)c1", "inactive"),
    ("O=S(=O)(NCCN1CCCC1)c1ccc(-c2ccc(CNC3Cc4ccccc4C3)cc2)s1", "active"),
    ("O=C(NC1CCN(Cc2ccccc2)CC1)c1csc2nc(-c3ccc(Cl)cc3)cn12", "inactive"),
]

--- query ---
Prompt line: # lookup: test call for COc1ccc(CNCc2ccc(-c3ccc(-c4nc5c(C)cccc5[nH]4)cc3)cc2)cc1
Response line: active

----------
experiment: human hepatoma cell viability loss – ATP luminescence, cytotoxicity control for P. falciparum antimalarial project, primary screen (AID 2303); conditions: HepG2 viability, 24-48 h, at 10 µM;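 note: 0% = DMSO wells and 100% = digitonin-killed cells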
Active and inactive are the calls of the source.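 The calls were made as follows: active = inhibition above 50%; inactive = the rest.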
Respond using exactly one of the listed classes: T for active, F for inactive

Below are worked cases with known answers.
# COMPOUND, ASSIGNED CATEGORY
data = [
    ("COc1cc(Cc2cnc(N)nc2N)ccc1OCC(=O)Nc1ccc(C)cc1", "F"),
    ("Cc1cc(N2CCCC2)nc(Nc2ccc(NC(=O)c3ccc(Br)o3)cc2)n1", "F"),
    ("O=C(CC(=O)C(F)(F)F)c1ccccc1[N+](=O)[O-]", "T"),
]

Prompt line: # lookup: test call for CNCCNCc1cccc(-c2ccc(-c3nc4ccccc4[nH]3)cc2)c1
Response line: F

Prompt line: # lookup: test call for COc1cc(CNCCCCCCNCc2cc(OC)c3ccccc3c2OC)c(OC)c2ccccc12
Response line: T

Prompt line: # lookup: test call for FC(F)(F)c1ccc2c(NCCc3ccccc3)ccnc2c1
Response line: F

Prompt line: # lookup: test call for NC(N)=Nc1nc(-c2cc(NC(=O)C(F)(F)F)cc([N+](=O)[O-])c2)cs1
Response line: F

Prompt line: # lookup: test call for CCC1N=C(N)N=C(N)N1OCc1cccc2ccccc12 (stereo unspecified)
Response line: T

Prompt line: # lookup: test call for O=C1c2ccc([N+](=O)[O-])cc2C(=O)N1c1ccc2[nH]ncc2c1
Response line: F

Prompt line: # lookup: test call for c1ccc(Oc2ccc(Nc3ccnc4cc(-c5ccc(CN6CCCCC6)o5)ccc34)cc2)nc1
Response line: F

Prompt line: # lookup: test call for CCNC(=O)Nc1ccc(-c2ccc(-c3nc4c(C)cccc4[nH]3)s2)cc1
Response line: F

----------
assay: antimalarial activity against Dd2 strain (AID 2302);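 note: 0% = DMSO untreated growth and 100% = chloroquine plus artemisinin killed control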; conditions: P. falciparum Dd2 in RBCs, LDH growth readout, 72 h; at 2 µM
Calls of active or inactive are those of the source.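 How the source made its calls: active means growth inhibition above 50% at the single 2 µM test dose, taken to imply half-maximal potency below 2 µM; inactive means the rest.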
Respond using exactly one of the listed classes: active, inactive

# COMPOUND, ASSIGNED CATEGORY
data = [
    ("Cc1cc(NCCc2ccccc2)nc(/N=C(\\N)Nc2cccc(Cl)c2)n1", "active"),
    ("Cc1c(CCNC(=O)CCCN2CC(C)CC(C)C2)c2ccccc2n1C (stereo not given)", "active"),
    ("O=C(Nc1cccc(Cl)c1Cl)Nc1ccnc2ccccc12", "inactive"),
    ("CCCCc1ccc(CCNCCCCCCNCCc2ccc(O)c(O)c2)cc1", "inactive"),
    ("COc1ccc2ccccc2c1CNCC1CCN(CC2CCCCC2)CC1", "inactive"),
]

Prompt line: # lookup: test call for COc1ccccc1NC(=O)CSc1nc2cccnc2n1-c1ccccc1OC
Response line: active

Prompt line: # lookup: test call for COc1cc2c(cc1OC)C(C(=O)Nc1ccc(C(F)(F)F)cc1)C(c1cccs1)N(C)C2=O (stereo not given)
Response line: active

Prompt line: # lookup: test call for COc1cccc2c(NN=Cc3ccc([N+](=O)[O-])cc3)ccnc12
Response line: inactive

Prompt line: # lookup: test call for Cc1ccc2c(OCCN3CCC(Cc4ccc5c(c4)NC(=O)CO5)CC3)cc(F)cc2n1
Response line: inactive

Prompt line: # lookup: test call for c1ccc(CCNc2ncnc3c2[nH]c2ccccc23)cc1
Response line: active

Prompt line: # lookup: test call for C=CCN1C(=O)CN(S(=O)(=O)c2ccc(-n3nc(C)cc3C)cc2)C1=S
Response line: inactive

Prompt line: # lookup: test call for CCOC(=O)c1cc(C(=O)NCCCCN2CCC(c3ccc(CC)cc3OCC)CC2)ccc1-c1ccc(C(F)(F)F)cc1
Response line: active

Prompt line: # lookup: test call for COc1cc(NC(=O)/C=C/c2cc(F)cc(F)c2F)cc(OCCN2CCC(O)(c3ccccc3)CC2)c1
Response line: active

Prompt line: # lookup: test call for Cc1ccc(NC(=O)c2ccc(NCCCN3CC(C)CC(C)C3)c([N+](=O)[O-])c2)cc1F (stereo not given)
Response line: active

----------
assay: human hepatoma cell viability loss – ATP luminescence, cytotoxicity control for P. falciparum antimalarial project, primary screen (AID 2303); conditions: HepG2 viability, 24-48 h, at 10 µM, stronger effect = higher value;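 note: 0% = DMSO wells and 100% = digitonin-killed cells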
OBSERVABLE: inhibition (%)
Answer with a number only, understood to be in %.

# count of solved cases: 8
# MOLECULE, inhibition, %
data = [
    ("CCN(CC)CCN(Cc1ccc(-c2ccc(C(F)(F)F)cc2)cc1)C(=O)Cn1c(CCc2cc(F)ccc2F)nc(=O)c2ccccc21", 42),
    ("CC(=O)c1ccc(Nc2c(C(N)=O)cnc3cc(-c4c(C)noc4C)ccc23)cc1", -3),
    ("Cn1nc(-c2ccc(NC(=O)Nc3cc(C(F)(F)F)ccc3F)cc2)c2cnc(NCCCCN3CCCC3)nc21", 88),
    ("C=CCc1cc(Cc2cnc(N)nc2N)cc(CCC)c1O", 54),
    ("CCC(C)NS(=O)(=O)c1ccc2nc(Nc3ccc(C)cc3)n([C@H](C)C(C)(C)C)c2c1 (some centres undefined)", 2),
    ("C[C@H](O)[C@@](C)(CO)NCc1ccc2c3c(cccc13)-c1ccccc1-2", 81),
    ("CN(CCCCNC(=O)c1cc2ccccc2[nH]1)C1CC2(CCN(C(=O)OC(C)(C)C)CC2)c2ccccc21 (centres undefined)", 12),
    ("COc1ccc2nccc([C@@H](O)CN3CCC(NC(=O)C(c4ccsc4)N4CCN(c5ccccc5OC)CC4)CC3)c2c1 (some centres undefined)", 11),
]

Now turn to the next molecule.
Reported inhibition for O=C(Nc1ccc(Cl)cc1C(=O)Nc1cccc(F)c1)c1ccc([N+](=O)[O-])cc1 was 10
